Reference source for all entries: PubChem BioAssay (NCI)

# Test system: OVCAR-3 ovarian
# test.name: NCI-60 one-dose screen, 48 h
# condition.summary: 10 µM unless noted
# Protocol: Growth inhibition of the OVCAR-3 human tumor cell line is measured as a screen for anti-cancer activity. Cells are grown in 96 well plates and exposed to the test compound for 48 hours. Compounds are tested at a single concentration, which is 10^-5 M for most compounds. The reported endpoint is percent growth (GI% or GIPRCNT), where numbers from 0 - 100% represent growth inhibition, and numbers from -100% - 0 represent cell death. For example, a value of 40 represents 60% growth inhibition. […]
This is part of a sample that, as a whole, favours compounds with a hit. Of some 83,000 tested, about 20% had one in any assay. Active and inactive are the calls of the source. How the source made its calls: active means growth percent below 10; inactive means the rest.
Possible outcomes: active, inactive

>>> print(df.to_string())
                                    molecule   assayed_system  answer_label
 0  Cc1c(N(C)CS(=O)(=O)O)c(=O)n(-c2ccccc2)n1C  OVCAR-3 ovarian      inactive
 1  Clc1ccc(CCC(Cn2ccnc2)Sc2c(Cl)cccc2Cl)cc1 (stereo not drawn)  OVCAR-3 ovarian      inactive
 2  COc1cc2c(cc1OCCCCCn1c(-c3ccc(OCc4ccccc4)cc3)nc3cc(N4CCOCC4)ccc31)N=C[C@@H]1CCCN1C2=O  OVCAR-3 ovarian        active
 3                CNc1ccc(CSc2ccc(Cl)cc2)cc1  OVCAR-3 ovarian      inactive
 4                   COc1cccc(-c2nnc(N)o2)c1  OVCAR-3 ovarian      inactive
 5    CN(C)c1nc(-c2ccco2)n2nc(-c3ccco3)cc2n1  OVCAR-3 ovarian      inactive
 6  N=C(N)/N=C(\CCc1nc2ccccc2[nH]1)c1nc2ccccc2[nH]1  OVCAR-3 ovarian      inactive
 7  C[C@@H]1CC[C@H]2[C@@H](C)C(O)O[C@@H]3O[C@]4(C)CC[C@@H]1[C@]32OO4 (stereo partly drawn)  OVCAR-3 ovarian      inactive
 8                       CC(C)C(=O)Cc1cnccn1  OVCAR-3 ovarian      inactive
 9                         CCCc1cccc(CCC)c1O  OVCAR-3 ovarian      inactive
10  N#Cc1ccc(NC(=O)Nc2ccc(Oc3ccc(NC(=O)Nc4ccc(C#N)cc4)cc3)cc2)cc1  OVCAR-3 ovarian      inactive
11                    OCCOc1c(Cl)cc(Cl)cc1Cl  OVCAR-3 ovarian      inactive
12  COc1ccc(OC)c(/C=C/c2nc(=S)n(-c3ccc(Cl)cc3)[nH]2)c1  OVCAR-3 ovarian      inactive
13  CC(=O)Nc1ccc2c(c1)Cc1c(F)c(F)c(F)c(F)c1-2  OVCAR-3 ovarian      inactive
14       O=C1c2ccccc2-c2c1nc1ccccc1[n+]2[O-]  OVCAR-3 ovarian      inactive
15  c1coc([C@@H]2C[C@@H]3Cc4ccc5ccccc5c4N2O3)c1  OVCAR-3 ovarian      inactive
16    COc1ccc2c(c1)nc(N)c1c3cc(C)c(C)cc3cn21  OVCAR-3 ovarian      inactive
17  CCN1C(=O)c2ccc3c4c(ccc(c24)C1=O)C(=O)N(CCCNCc1ccccc1OC)C3=O  OVCAR-3 ovarian        active
18         Nc1nc(N)c([N+](=O)[O-])c(=O)[nH]1  OVCAR-3 ovarian      inactive
19  CCSc1nnc2n(Cc3ccccc3)c(=O)c3c(C)c(C(N)=O)sc3n12  OVCAR-3 ovarian      inactive
20      Cc1ccc(C=C2C(Cl)=C(Cl)C(Cl)=C2Cl)cc1  OVCAR-3 ovarian        active
21                                 NNC(=O)NO  OVCAR-3 ovarian      inactive
22  COc1ccc(-c2cc(C(=O)Nc3nc4cc(C)c(C)cc4s3)nc3cc(-c4ccccc4)nn23)cc1OC  OVCAR-3 ovarian      inactive
23  COc1cc(C2NC(c3ccc(Cl)cc3)C(C)C(=NC(=O)c3cnccn3)C2C)cc(OC)c1OC (stereo not drawn)  OVCAR-3 ovarian      inactive
24  COc1ccc(C2=NN(C(C)=O)C(c3cc(OC)c(OC)c(OC)c3)C2)cc1 (stereo not drawn)  OVCAR-3 ovarian      inactive
25         CCOC(Cc1c(N)[nH]c(=S)[nH]c1=O)OCC  OVCAR-3 ovarian      inactive
26           Cc1cc(NC(=O)Nc2cccc3ccccc23)no1  OVCAR-3 ovarian      inactive
27           O=C(/C=C/c1cccnc1)/C=C/c1cccnc1  OVCAR-3 ovarian        active

* * *

A collection of molecules and their measured growth
# System: UACC-257 melanoma
# test.name: NCI-60 one-dose screen, 48 h (100 = growth as untreated, 0 = no growth, -100 = all killed)
# condition.summary: 10 µM unless noted
This is part of a sample that, as a whole, favours compounds with a hit. Of some 83,000 tested, about 20% had one in any assay.
measured.metric: growth (%)

>>> print(df.to_string())
                            compound_string  u  reported
0  O=C(CCc1nnc(Cn2ccnc2)o1)c1nc2ccccc2[nH]1  %       114
1     Cc1nn(-c2ccccc2)c2nc3c(nc12)C(=O)CCC3  %      99.8
2  CCC1=C(c2ccc(OC)cc2)C(C)(C)Oc2cc(O)c(CN3CCCC3)cc21  %        72
3       O=C1c2ccccc2-c2c1nc1ccccc1[n+]2[O-]  %       107
4             CCCCCCCCCCCCNc1ncnc2[nH]ncc12  %      50.2
5  COC(=O)[C@]1(CCSC)N[C@H](c2cn(-c3ccccc3)nc2C)[C@@H]2C(=O)N(c3ccc(C)cc3)C(=O)[C@@H]21  %       102
6             S=C1SCN(Cc2ccccc2)CN1Cc1ccco1  %      72.4

* * *

# Tested on: ACHN renal
# test.name: NCI-60 one-dose screen, 48 h (100 = growth as untreated, 0 = no growth, -100 = all killed)
# condition.summary: 10 µM unless noted
# Protocol: Growth inhibition of the ACHN human tumor cell line is measured as a screen for anti-cancer activity. Cells are grown in 96 well plates and exposed to the test compound for 48 hours. Compounds are tested at a single concentration, which is 10^-5 M for most compounds. The reported endpoint is percent growth (GI% or GIPRCNT), where numbers from 0 - 100% represent growth inhibition, and numbers from -100% - 0 represent cell death. For example, a value of 40 represents 60% growth inhibition. […]
This is part of a sample that, as a whole, favours compounds with a hit. Of some 83,000 tested, about 20% had one in any assay. The source made the active and inactive calls. Rule for the calls: active = growth percent below 10; inactive = the rest.
Item-by-item account of growth
measured.metric: growth

In [3]: df
Out[3]:
                                    compound  assayed_system  measured_metric                   reported
 0               C/C(=N/N=C(N)N)c1ccc(Cl)cc1      ACHN renal           growth           96.1% (inactive)
 1  Oc1[nH]c2ccccc2c1/C=c1/ccc2c(c1)N=C(c1cc(F)cc(F)c1)N=2      ACHN renal           growth           50.9% (inactive)
 2  O=C(/C=C/c1cccnc1)NCCCCC1CCCN(C(=O)c2ccccc2)C1 (stereo not given)      ACHN renal           growth           73.7% (inactive)
 3  Cc1c(N(C)CS(=O)(=O)O)c(=O)n(-c2ccccc2)n1C      ACHN renal           growth            101% (inactive)
 4  COc1ccc(C2=NN(C(C)=O)C(c3cc(OC)c(OC)c(OC)c3)C2)cc1 (stereo not given)      ACHN renal           growth            104% (inactive)
 5  CCCCC1Nc2nc(SC)n(C)c(=O)c2CN(Cc2ccccc2)C1=O (stereo not given)      ACHN renal           growth           90.2% (inactive)
 6  C[N+]1(CCc2ccccc2)CCC(CCC2CC[N+](C)(CCc3ccccc3)CC2)CC1 (stereo not given)      ACHN renal           growth            101% (inactive)
 7  O=c1c(O)cccn1CCCNCCCN(CCCn1cccc(O)c1=O)CCCn1cccc(O)c1=O      ACHN renal           growth            101% (inactive)
 8                      O=C(c1ccccc1)c1ccco1      ACHN renal           growth           98.9% (inactive)
 9  COc1ccc(/C=C2\COc3ccc(O)c(O)c3C2=O)cc1OC      ACHN renal           growth            -56.3% (active)
10                  NC(N)=NC(N)=NCCCc1ccccc1      ACHN renal           growth  65.8% [100 µM] (inactive)
11  O=C(/C(=C/c1cccc([N+](=O)[O-])c1)c1ccccc1)c1ccccc1      ACHN renal           growth           40.1% (inactive)
12     O=C(NN(C(=O)c1ccccc1)c1cccs1)c1ccccc1      ACHN renal           growth            104% (inactive)
13  COc1ccccc1[C@H]1c2[nH]c3ccccc3c2C[C@H]2C(=O)N(CCCCCCC(=O)NO)CC(=O)N12      ACHN renal           growth           35.1% (inactive)
14  Cc1cc(Cl)ccc1Nc1nc(C(F)(F)F)ccc1C(=O)NCC(=O)N/N=C/c1c(Cl)cccc1Cl      ACHN renal           growth           57.7% (inactive)
15      Clc1cccc(Cc2cn3cc(-c4ccccc4)nc3s2)c1      ACHN renal           growth           27.9% (inactive)
16  COC(=O)CC1=C(C)/C(=C/c2[nH]c(-c3ccc[nH]3)cc2OC)N=C1C      ACHN renal           growth            -13.4% (active)
17  CC(=O)Nc1ccc2c(c1)Cc1c(F)c(F)c(F)c(F)c1-2      ACHN renal           growth           87.5% (inactive)
18  COc1ccc(Cn2cc3c(c2-c2ccccc2)CCc2cncnc2-3)cc1      ACHN renal           growth           76.8% (inactive)
19  Cc1c(NCc2nnc3n(Cc4ccccc4)c(=O)c4c5c(sc4n23)CCCC5)c(=O)n(-c2ccccc2)n1C      ACHN renal           growth             96% (inactive)
20  Nc1ccc2c(c1)/C(=N/O)c1cc([N+](=O)[O-])ccc1-2      ACHN renal           growth           58.7% (inactive)
21        CN(C)c1ccc2c(c1)/C(=N/O)c1ccccc1-2      ACHN renal           growth           87.5% (inactive)
22  Fc1ccc(-c2nnc(-c3c(-c4ccc(F)cc4)nc4ncccn34)o2)cc1      ACHN renal           growth           97.8% (inactive)
23        NC(=Nc1ccccc1)SCCCCSC(N)=Nc1ccccc1      ACHN renal           growth           75.4% (inactive)
24            COc1ccc(/C=C(\C#N)c2ccccc2)cc1      ACHN renal           growth           97.3% (inactive)
